B1: tRNA (parent)
chain: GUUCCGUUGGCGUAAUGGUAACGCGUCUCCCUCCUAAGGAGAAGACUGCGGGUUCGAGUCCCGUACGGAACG

Variants of: B1
Assay: yeast fitness relative to wild type (ratio to wild type); higher = fitter; tRNA-Arg(CCU), competitive growth, 37 C, YPD
Fewer inactive variants are shown than the library holds.
Metric name: yeast fitness

The cases that follow already have their yeast fitness on record.
{"Mutations": "C4G C30U A42U G50C G63C", "Result": "≤ 0.5"}
{"Mutations": "A15G C24A G63A", "Result": "≤ 0.5"}
{"Mutations": "A20C C33A G39A", "Result": "≤ 0.5"}
{"Mutations": "G23C C24A U32C A65U G68A", "Result": "≤ 0.5"}
{"Mutations": "C29G C31A U47A U59A C60U C62G C66U", "Result": "≤ 0.5"}
{"Mutations": "C5U A65G A69G A70U", "Result": "≤ 0.5"}
{"Mutations": "C31A A37G G38A A40G", "Result": "≤ 0.5"}
{"Mutations": "C30U C31U A37G A43G", "Result": "≤ 0.5"}

Please state, for each entry, its recorded yeast fitness.
1. G12C C24U C46U C49G
2. C5U A20U G56C A65G A70U
3. C29A A36U
4. A14C C33G G44A C49A C55A
5. C4G C24A C34A C66A
6. U7C G48C G67C
7. U28C A43C G44C C61G A65U
8. G18C G39C G50A

≤ 0.5
≤ 0.5
≤ 0.5
≤ 0.5
≤ 0.5
≤ 0.5
≤ 0.5
≤ 0.5
